We begin with a simple list: items and their reported log10 of cAMP Rel EC50 (in the presence of 1% HSA).
- assayTarget: T1, human GIP receptor (human) (UniProt P48546)
- T1 sequence (looked up): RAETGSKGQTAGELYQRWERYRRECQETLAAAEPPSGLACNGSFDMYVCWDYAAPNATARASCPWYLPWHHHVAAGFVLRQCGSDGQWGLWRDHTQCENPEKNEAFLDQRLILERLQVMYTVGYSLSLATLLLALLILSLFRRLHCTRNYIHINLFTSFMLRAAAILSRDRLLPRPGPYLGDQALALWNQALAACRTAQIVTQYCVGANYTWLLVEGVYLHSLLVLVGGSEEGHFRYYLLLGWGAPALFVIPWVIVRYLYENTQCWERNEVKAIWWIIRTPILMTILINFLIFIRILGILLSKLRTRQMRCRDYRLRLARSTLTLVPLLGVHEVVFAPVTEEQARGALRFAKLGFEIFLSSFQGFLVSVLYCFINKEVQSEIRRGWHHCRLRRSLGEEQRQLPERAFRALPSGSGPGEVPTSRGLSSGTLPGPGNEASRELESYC
- assay: cell-based or functional assay
Non-standard residues stand in square brackets, D forms with d. No end group written: not given here. αMeL = CC(C)C[C@](C)(N)C(=O)O; Aib = CC(C)(N)C(=O)O
assayMetric: log10 of cAMP Rel EC50 (in the presence of 1% HSA) (log10 of the value in nM)

binder	valueReported
YXQGTFTSDFSKXLDKKAQXAFIEYLLAGAPSSGAPPPSEG (synthetic construct; SITE 2: note = 2-Aminoisobutyric Acid; SITE 13: note = alpha-methyl-leucine; SITE 17: note = Lysine is chemically modified through conjugation of the epsilon-amino group of the Lysine side chain with (2-[2-(2-Amino-ethoxy)-ethoxy]-acetyl)-(gamma-Glu)-CO-(CH2) 18-CO2H; SITE 20: n) [Example 24]	2.01
YXQGTFTSDXSXXLDKKAQXAFIEYLLEAGPSSGAPPPSGX (non-natural residues; lipidated Lys; C-terminal amide; synthetic construct; SITE 2: note = 2-Aminoisobutyric Acid; SITE 10: note = 3-(4-Pyridyl)-L-alanine; SITE 12: note = L-ornithine; SITE 13: note = alpha-methyl-leucine; SITE 17: note = Lysine is chemically modified through conjugation of the epsilon-amino group of the Lysine side chain with (2-[2-(2-) [Example 274]	1.44
YXQGTFTSDYSIXLDKKAAXAFIEYLLEGGPSSGEPPPSEG (Aib, αMeL; lysine acylated (AEEA)2-γGlu-C20 diacid; C-terminal amide; synthetic construct; SITE 2: note = 2-Aminoisobutyric Acid; SITE 13: note = alpha-methyl-leucine; SITE 17: note = Lysine is chemically modified through conjugation of the epsilon-amino group of the Lysine side chain with (2-[2-(2-Amino-ethoxy)-ethoxy]-acetyl)2-(gamma-Glu)-CO-(CH2 )18-CO2H; SITE 20:) [Example 294]	1.73
Y[Aib]QGTFTSDFSK[αMeL]LDKKAQQAFIEYLLA[Aib]GPSSGAPPPSEG-NH2 (not fully specified (residue 17)) [Example 30]	1.86
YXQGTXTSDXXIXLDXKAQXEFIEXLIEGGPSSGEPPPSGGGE (non-natural residues; AEEA-γGlu-diacid acylated Lys; C-terminal amide; synthetic construct; SITE 2: note = 2-Aminoisobutyric Acid; SITE 6: note = alpha-methyl-L-phenylalanine; SITE 10: note = 3-(4-Pyridyl)-L-alanine; SITE 11: note = alpha-methyl-L-serine; SITE 13: note = alpha-methyl-leucine; SITE 16: note = L-ornithine; SITE 17: note = Lysine is chemically modified th) [Example 1169]	0.07
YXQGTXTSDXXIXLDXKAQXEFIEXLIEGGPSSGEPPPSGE (non-natural residues, lysine acylation, C-terminal amide; synthetic construct; SITE 2: note = 2-Aminoisobutyric Acid; SITE 6: note = alpha-methyl-L-phenylalanine; SITE 10: note = 3-(4-Pyridyl)-L-alanine; SITE 11: note = alpha-methyl-L-serine; SITE 13: note = alpha-methyl-leucine; SITE 16: note = L-ornithine; SITE 17: note = Lysine is chemically modified th) [Example 1171]	-0.14

FYI, the data here is from patent US20240270821A1.
